- Test system: NCI-H3118 (Head and Neck Carcinoma)
- Assay text: combination Emax (second highest fraction inhibited in the dose matrix, 72 h); higher = more inhibition; extreme values may be limits of the assay
Measured property: combination Emax
Answer with a number only.

These recorded examples may help you get a feel for the data.
[[record]]
molecule = "Cn1cnc2c(F)c(Nc3ccc(Br)cc3Cl)c(C(=O)NOCCO)cc21 [Selumetinib] + CC(C)n1c(=O)n(C)c2cnc3cc(F)c(-c4ccc(OCCCN5CCCCC5)nc4)cc3c21 [AZD1390] (first compound max 10 µM, 7x7, partner max 0.3 µM)"
measurement_target = "NCI-H3118 (Head and Neck Carcinoma)"
measured_number = 0.577

[[record]]
molecule = "Cc1c2c(nn1C)CSCc1cc(n(C)n1)CSc1cc(c3ccccc3c1)OCCCc1c(C(=O)O)n(C)c3c-2c(Cl)ccc13 [AZD5991] + CC1(C)CCC(CN2CCN(c3ccc(C(=O)NS(=O)(=O)c4ccc(NCC5CCOCC5)c([N+](=O)[O-])c4)c(Oc4cnc5[nH]ccc5c4)c3)CC2)=C(c2ccc(Cl)cc2)C1 [Venetoclax] (first compound max 1 µM, 7x7, partner max 1 µM)"
measurement_target = "NCI-H3118 (Head and Neck Carcinoma)"
measured_number = 0.412

[[record]]
molecule = "COc1cccc(OCCCN)c1-c1cc(Nc2cnc(C#N)cn2)n[nH]1 [Prexasertib] + Cc1cc2ncnn2cc1Nc1ncc2c(n1)n(C1CCOCC1)c(=O)n2C [AZD7648] (first compound max 1 µM, 7x7, partner max 10 µM)"
measurement_target = "NCI-H3118 (Head and Neck Carcinoma)"
measured_number = 0.819

[[record]]
molecule = "CC1(C)CCC(CN2CCN(c3ccc(C(=O)NS(=O)(=O)c4ccc(NCC5CCOCC5)c([N+](=O)[O-])c4)c(Oc4cnc5[nH]ccc5c4)c3)CC2)=C(c2ccc(Cl)cc2)C1 [Venetoclax] + COc1cc(Nc2ncc3c(n2)-c2ccc(Cl)cc2C(c2c(F)cccc2OC)=NC3)ccc1C(=O)O [Alisertib] (first compound max 1 µM, 7x7, partner max 10 µM)"
measurement_target = "NCI-H3118 (Head and Neck Carcinoma)"
measured_number = 0.312

[[record]]
molecule = "CC1(C)CCC(CN2CCN(c3ccc(C(=O)NS(=O)(=O)c4ccc(NCC5CCOCC5)c([N+](=O)[O-])c4)c(Oc4cnc5[nH]ccc5c4)c3)CC2)=C(c2ccc(Cl)cc2)C1 [Venetoclax] + CCN(CCO)CCCOc1ccc2c(Nc3cc(CC(=O)Nc4cccc(F)c4)[nH]n3)ncnc2c1 [AZD2811] (first compound max 1 µM, 7x7, partner max 1 µM)"
measurement_target = "NCI-H3118 (Head and Neck Carcinoma)"
measured_number = 0.207


Record CCN(CCO)CCCOc1ccc2c(Nc3cc(CC(=O)Nc4cccc(F)c4)[nH]n3)ncnc2c1 [AZD2811] + C=CCn1c(=O)c2cnc(Nc3ccc(N4CCN(C)CC4)cc3)nc2n1-c1cccc(C(C)(C)O)n1 [AZD1775] (first compound max 1 µM, partner max 1 µM) . Reported combination Emax: 0.807

Record C=CCn1c(=O)c2cnc(Nc3ccc(N4CCN(C)CC4)cc3)nc2n1-c1cccc(C(C)(C)O)n1 [AZD1775] + O=C(c1cc(Cc2n[nH]c(=O)c3ccccc23)ccc1F)N1CCN(C(=O)C2CC2)CC1 [Olaparib] (first compound max 1 µM, partner max 10 µM) . Reported combination Emax: 0.889

Record O=C(c1cc(Cc2n[nH]c(=O)c3ccccc23)ccc1F)N1CCN(C(=O)C2CC2)CC1 [Olaparib] + COc1nnc2ccc(N3CCC(c4ccc(OCCN5CCN(C)C(=O)[C@H]5C)cc4)CC3)nn12 [AZD5153] (first compound max 10 µM, 7x7, partner max 1 µM) . Reported combination Emax: 0.519

Record Cc1cc2ncnn2cc1Nc1ncc2c(n1)n(C1CCOCC1)c(=O)n2C [AZD7648] + C=CCn1c(=O)c2cnc(Nc3ccc(N4CCN(C)CC4)cc3)nc2n1-c1cccc(C(C)(C)O)n1 [AZD1775] (first compound max 10 µM, partner max 1 µM) . Reported combination Emax: 0.897

Record CS(=O)(=O)CCNCc1ccc(-c2ccc3ncnc(Nc4ccc(OCc5cccc(F)c5)c(Cl)c4)c3c2)o1 [Lapatinib] + Cn1cnc2c(F)c(Nc3ccc(Br)cc3Cl)c(C(=O)NOCCO)cc21 [Selumetinib] (first compound max 10 µM, 7x7, partner max 10 µM) . Reported combination Emax: 0.653

Record CC1(C)CCC(CN2CCN(c3ccc(C(=O)NS(=O)(=O)c4ccc(NCC5CCOCC5)c([N+](=O)[O-])c4)c(Oc4cnc5[nH]ccc5c4)c3)CC2)=C(c2ccc(Cl)cc2)C1 [Venetoclax] + Cc1cc2ncnn2cc1Nc1ncc2c(n1)n(C1CCOCC1)c(=O)n2C [AZD7648] (first compound max 1 µM, 7x7, partner max 10 µM) . Reported combination Emax: 0.137

Record C=CCn1c(=O)c2cnc(Nc3ccc(N4CCN(C)CC4)cc3)nc2n1-c1cccc(C(C)(C)O)n1 [AZD1775] + CCc1c2c(nc3ccc(O)cc13)-c1cc3c(c(=O)n1C2)COC(=O)[C@]3(O)CC [SN-38] (first compound max 1 µM, partner max 0.3 µM) . Reported combination Emax: 0.9

Record COc1nnc2ccc(N3CCC(c4ccc(OCCN5CCN(C)C(=O)[C@H]5C)cc4)CC3)nn12 [AZD5153] + C=CCn1c(=O)c2cnc(Nc3ccc(N4CCN(C)CC4)cc3)nc2n1-c1cccc(C(C)(C)O)n1 [AZD1775] (first compound max 1 µM, partner max 1 µM) . Reported combination Emax: 0.754

###

- Tested on: IST-MEL1 (Melanoma)
- Assay text: combination Emax (second highest fraction inhibited in the dose matrix, 72 h); higher = more inhibition; extreme values may be limits of the assay
In this section we review reported combination Emax values for a set of compounds.

[[record]]
compound = "COc1nnc2ccc(N3CCC(c4ccc(OCCN5CCN(C)C(=O)[C@H]5C)cc4)CC3)nn12 [AZD5153] + C[C@@H]1COCCN1C2=NC(=NC(=C2)C3(CC3)[S@](=N)(=O)C)C4=C5C=CNC5=NC=C4 [AZD6738] (first compound max 1 µM, 7x7, partner max 10 µM)"
measurement_target = "IST-MEL1 (Melanoma)"
result = 0.789


Record COc1cccc(OCCCN)c1-c1cc(Nc2cnc(C#N)cn2)n[nH]1 [Prexasertib] + C=CCn1c(=O)c2cnc(Nc3ccc(N4CCN(C)CC4)cc3)nc2n1-c1cccc(C(C)(C)O)n1 [AZD1775] (first compound max 1 µM, partner max 1 µM) . Reported combination Emax: 0.812

###

- System: PL4 (Pancreatic Carcinoma)
- Assay text: combination Emax (second highest fraction inhibited in the dose matrix, 72 h); higher = more inhibition; extreme values may be limits of the assay
In this section we review reported combination Emax values for a set of molecules.
Answer with a number only.

These recorded examples may help you get a feel for the data.
[[record]]
molecule = "Cc1c2c(nn1C)CSCc1cc(n(C)n1)CSc1cc(c3ccccc3c1)OCCCc1c(C(=O)O)n(C)c3c-2c(Cl)ccc13 [AZD5991] + C[C@@H](Nc1cc(F)cc(F)c1)c1cc(C(=O)N(C)C)cc2c(=O)cc(N3CCOCC3)oc12 [AZD8186] (first compound max 1 µM, 7x7, partner max 3 µM)"
measured_number = 0.421

[[record]]
molecule = "Cc1cc2ncnn2cc1Nc1ncc2c(n1)n(C1CCOCC1)c(=O)n2C [AZD7648] + C[C@@H]1COCCN1C2=NC(=NC(=C2)C3(CC3)[S@](=N)(=O)C)C4=C5C=CNC5=NC=C4 [AZD6738] (first compound max 10 µM, 7x7, partner max 10 µM)"
measured_number = 0.631

[[record]]
molecule = "C[C@@H]1COCCN1c1cc(C2([S@](C)(=N)=O)CC2)nc(-c2ccnc3[nH]ccc23)n1 [AZD6738] + O=C(c1cc(Cc2n[nH]c(=O)c3ccccc23)ccc1F)N1CCN(C(=O)C2CC2)CC1 [Olaparib] (first compound max 10 µM, 7x7, partner max 10 µM)"
measured_number = 0.672

[[record]]
molecule = "CC1(C)CCC(CN2CCN(c3ccc(C(=O)NS(=O)(=O)c4ccc(NCC5CCOCC5)c([N+](=O)[O-])c4)c(Oc4cnc5[nH]ccc5c4)c3)CC2)=C(c2ccc(Cl)cc2)C1 [Venetoclax] + C[C@@H]1COCCN1C2=NC(=NC(=C2)C3(CC3)[S@](=N)(=O)C)C4=C5C=CNC5=NC=C4 [AZD6738] (first compound max 1 µM, 7x7, partner max 10 µM)"
measured_number = 0.709

[[record]]
molecule = "COc1nnc2ccc(N3CCC(c4ccc(OCCN5CCN(C)C(=O)[C@H]5C)cc4)CC3)nn12 [AZD5153] + CN(CC[C@H](CSC1=CC=CC=C1)NC2=C(C=C(C=C2)S(=O)(=O)NC(=O)C3=CC=C(C=C3)N4CCC(CC4)[C@H](C5=CC=CC=C5C6=CC=C(C=C6)Cl)O)S(=O)(=O)C(F)(F)F)CCO [AZD4320] (first compound max 1 µM, 7x7, partner max 1 µM)"
measured_number = 0.809

[[record]]
molecule = "CC1(C)CCC(CN2CCN(c3ccc(C(=O)NS(=O)(=O)c4ccc(NCC5CCOCC5)c([N+](=O)[O-])c4)c(Oc4cnc5[nH]ccc5c4)c3)CC2)=C(c2ccc(Cl)cc2)C1 [Venetoclax] + C1CN(CCC1(C(=O)N[C@@H](CCO)C2=CC=C(C=C2)Cl)N)C3=NC=NC4=C3C=CN4 [Capivasertib] (first compound max 1 µM, 7x7, partner max 3 µM)"
measured_number = 0.197


Record Cc1c2c(nn1C)CSCc1cc(n(C)n1)CSc1cc(c3ccccc3c1)OCCCc1c(C(=O)O)n(C)c3c-2c(Cl)ccc13 [AZD5991] + Cn1cnc2c(F)c(Nc3ccc(Br)cc3Cl)c(C(=O)NOCCO)cc21 [Selumetinib] (first compound max 1 µM, 7x7, partner max 3 µM) . Reported combination Emax: 0.573

Record CN(CCO)CC[C@H](CSc1ccccc1)Nc1ccc(S(=O)(=O)NC(=O)c2ccc(N3CCC([C@@H](O)c4ccccc4-c4ccc(Cl)cc4)CC3)cc2)cc1S(=O)(=O)C(F)(F)F [AZD4320] + CCN(CCO)CCCOc1ccc2c(Nc3cc(CC(=O)Nc4cccc(F)c4)[nH]n3)ncnc2c1 [AZD2811] (first compound max 1 µM, 7x7, partner max 1 µM) . Reported combination Emax: 0.544

Record C[C@@H](c1ccc2nccn2c1)n1nnc2ncc(-c3cnn(C)c3)nc21 [Savolitinib] + Cc1c2c(nn1C)CSCc1cc(n(C)n1)CSc1cc(c3ccccc3c1)OCCCc1c(C(=O)O)n(C)c3c-2c(Cl)ccc13 [AZD5991] (first compound max 1 µM, 7x7, partner max 1 µM) . Reported combination Emax: 0.189

Record CC(=O)c1c(C)c2cnc(Nc3ccc(N4CCNCC4)cn3)nc2n(C2CCCC2)c1=O [Palbociclib] + Cc1c2c(nn1C)CSCc1cc(n(C)n1)CSc1cc(c3ccccc3c1)OCCCc1c(C(=O)O)n(C)c3c-2c(Cl)ccc13 [AZD5991] (first compound max 10 µM, 7x7, partner max 1 µM) . Reported combination Emax: 0.263

Record Cc1c2c(nn1C)CSCc1cc(n(C)n1)CSc1cc(c3ccccc3c1)OCCCc1c(C(=O)O)n(C)c3c-2c(Cl)ccc13 [AZD5991] + C[C@@H]1COCCN1C2=NC(=NC(=C2)C3(CC3)[S@](=N)(=O)C)C4=C5C=CNC5=NC=C4 [AZD6738] (first compound max 1 µM, 7x7, partner max 10 µM) . Reported combination Emax: 0.761

Record COc1nnc2ccc(N3CCC(c4ccc(OCCN5CCN(C)C(=O)[C@H]5C)cc4)CC3)nn12 [AZD5153] + C[C@@H]1COCCN1C2=NC(=NC(=C2)C3(CC3)[S@](=N)(=O)C)C4=C5C=CNC5=NC=C4 [AZD6738] (first compound max 1 µM, 7x7, partner max 10 µM) . Reported combination Emax: 0.756

Record NC1(C(=O)N[C@@H](CCO)c2ccc(Cl)cc2)CCN(c2ncnc3[nH]ccc23)CC1 [Capivasertib] + Cn1cnc2c(F)c(Nc3ccc(Br)cc3Cl)c(C(=O)NOCCO)cc21 [Selumetinib] (first compound max 10 µM, 7x7, partner max 10 µM) . Reported combination Emax: 0.726
